- target_or_system: recombinant human FGFR1 catalytic domain (amino acids 308-731) (Homo sapiens (Human))
- Sequence (P11362 other isoform, or with tags, fused parts or gaps): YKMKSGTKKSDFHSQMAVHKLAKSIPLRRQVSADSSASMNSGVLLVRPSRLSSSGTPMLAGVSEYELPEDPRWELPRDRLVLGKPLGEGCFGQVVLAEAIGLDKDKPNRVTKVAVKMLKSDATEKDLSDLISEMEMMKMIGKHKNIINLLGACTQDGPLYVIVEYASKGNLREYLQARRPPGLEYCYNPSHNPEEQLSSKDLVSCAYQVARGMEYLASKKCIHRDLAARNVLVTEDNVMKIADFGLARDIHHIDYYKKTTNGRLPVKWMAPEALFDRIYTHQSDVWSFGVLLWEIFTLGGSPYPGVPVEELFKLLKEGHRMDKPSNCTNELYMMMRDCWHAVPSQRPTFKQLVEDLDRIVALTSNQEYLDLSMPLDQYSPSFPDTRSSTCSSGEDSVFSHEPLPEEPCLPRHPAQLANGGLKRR
- experiment_notes: FGFR1 enzyme activity assay (LanthaScreen TR-FRET)
- condition_parameters: 20 min incubation at 22° C., average of multiple determinations if made, read-out: FGFR1 Enz FRET IC50
Catalogue of molecules with associated log10 IC50
All values: log10 IC50 [nM].

input: Returns the measured log10 IC50 for the input molecule. Input: C=CC(=O)N[C@H]1CC[C@H](C(=O)N2CC[C@H](n3cc(-c4cc(OC)c5c(C#N)cnn5c4)cn3)C2)CC1
output: 1.41

input: Lookup COc1cc(-c2cnn(C3CCN(C(=O)C4CN(C(=O)/C=C/CN(C)C)C4)CC3)c2)cn2ncc(Cl)c12
output: 1.20

input: Please answer likewise for C=CC(=O)N1CC(C(=O)N2CCC(c3ccc(-c4cc(OC)c5c(C#N)cnn5c4)cc3)CC2)C1
output: 1.11

input: Then this molecule: C=CC(=O)N[C@H]1CC[C@@H](C(=O)N2CCC(n3cc(-c4cc(OC)c5c(C#N)cnn5c4)cn3)CC2)CC1
output: 1.15

input: Same question for COc1cc(-c2cnn(C3CCN(CC4(OC)CN(C(=O)/C=C/CN(C)C)C4)CC3)c2C)cn2ncc(C#N)c12 please.
output: 1.85

input: Can you check C=CC(=O)N1CC(OC)(C(=O)N2CCC(n3ncc(-c4cc(OC)c5c(C#N)cnn5c4)c3C)CC2)C1 next?
output: 2.18

input: Cool, now COc1cc(-c2cnn(C3CCN(C(=O)C4CN(C(=O)C5=CCC5)C4)CC3)c2)cn2ncc(C#N)c12
output: 1.08

input: Again, but for C=CC(=O)N1CC(CN2CC(n3ncc(-c4cc(OC)c5c(C#N)cnn5c4)c3C)C2)C1
output: 2.45

input: Could you do the same for C=CC(=O)N1CCC(C#N)(C(=O)N2CCC(n3cc(-c4cc(OC)c5c(C#N)cnn5c4)cn3)CC2)CC1 , please?
output: 0.90

input: Ok, now C=CC(=O)N1CC(C(=O)N2CCC(n3ncc(-c4cc(OC)c5c(C#N)cnn5c4)c3C)CC2)C1
output: 2.00

Others:
input: log10 IC50 lookup needed for COc1cc(-c2cnn(C3CCN(C(=O)C4CN(C(=O)/C=C/CN5CC[C@@H](F)C5)C4)CC3)c2)cn2ncc(C#N)c12 , thanks.
output: 1.20

input: Same read-out for COc1cc(-c2cnn(C3CCN(C(=O)C4(F)CN(C(=O)/C=C/C(F)(F)F)C4)CC3)c2C)cn2ncc(C#N)c12 ?
output: 2.41

input: Please give the result for COc1cc(-c2cnn(C3CCN(C(=O)C4(OC)CN(C(=O)/C=C/CN(C)C)C4)CC3)c2C)cn2ncc(C#N)c12 too.
output: 1.89

input: Now consider C=CC(=O)N1CC(C(=O)N2CC[C@H](n3cc(-c4cc(OC)c5c(C#N)cnn5c4)cn3)C2)C1 .
output: 1.30
